# testMethodNotes: Hemolytic activity in human RBC at 100 uM after 45 mins by spectrophotometric method relative to control
# Format: ADME, cell-based, Erythrocyte
# experimentalSetup: red blood cells (erythrocytes), read-out: Activity
Square brackets hold non-standard residues; d marks the D form. Peptide text beside a SMILES is read from it. * marks the point of attachment. Benzoyl(4-(4-hexylphenyl)) = CCCCCCc1ccc(-c2ccc(C(=O)*)cc2)cc1; X1 = C[C@H](N*)B1OC2C[C@@H]3C[C@@H](C3(C)C)[C@]2(C)O1; boroAla = C[C@H](N*)B(O)O; Orn = NCCC[C@H](N)C(=O)O
// assign Fulfilled if hemolysis at 0.75 h, 100 µM falls strictly below 4%, else Not fulfilled (ties count as Not fulfilled)

Illustrative cases are given below, each with its answer.
1. CCCCCCc1ccc(-c2ccc(C(=O)N[C@@H](CCCN)C(=O)N[C@H](C(=O)N[C@@H](C)C(=O)N[C@@H](CC(N)=O)C(=O)N[C@@H](C)B3OC4C[C@@H]5C[C@@H](C5(C)C)[C@]4(C)O3)[C@@H](C)O)cc2)cc1 (stereo partly drawn) ({Benzoyl(4-(4-hexylphenyl))}-[Orn]TAN-X1) = Not fulfilled
2. CCCCCCc1ccc(-c2c[nH]c3ccc(C(=O)N[C@@H](CCCN)C(=O)N[C@H](C(=O)N[C@@H](C)C(=O)N[C@H]4Cc5cn(nn5)CCO[C@@H]5C[C@@H]6OB(O[C@@H]6C5)[C@H](C)NC4=O)[C@@H](C)O)cc23)cc1 = Fulfilled
3. CCCCCCc1ccc(-n2cc(C(=O)N[C@@H](CCCN)C(=O)N[C@H](C(=O)N[C@@H](C)C(=O)N[C@H]3Cc4cn(nn4)CCO[C@@H]4C[C@@H]5OB(O[C@@H]5C4)[C@H](C)NC3=O)[C@@H](C)O)ccc2=O)cc1 = Fulfilled

Field: below-cutoff. Rule: recorded hemolysis at 0.75 h, 100 µM strictly less than 4%. Subject: "C[C@@H]1NC(=O)[C@@H](NC(=O)[C@H](C)NC(=O)[C@@H](NC(=O)[C@H](CCCN)NC(=O)C#Cc2ccc(-c3ccccc3)cc2)[C@@H](C)O)Cc2cn(nn2)CCO[C@@H]2C[C@@H]3OB1O[C@@H]3C2"
Fulfilled

Quick check: does CCCCCCc1ccc(-c2ccc(C(=O)N[C@@H](CCCN)C(=O)N[C@H](C(=O)N[C@@H](C)C(=O)N[C@@H](CC(N)=O)C(=O)N[C@@H](C)B(O)O)[C@@H](C)O)cc2)cc1 ({Benzoyl(4-(4-hexylphenyl))}-[Orn]TAN-boroAla) have hemolysis at 0.75 h, 100 µM under 4%?
Not fulfilled

Dear reviewer, please state whether "CCCCCCC#Cc1cncc(C(=O)N[C@@H](CCCN)C(=O)N[C@H](C(=O)N[C@@H](C)C(=O)N[C@H]2Cc3cn(nn3)CCO[C@@H]3C[C@@H]4OB(O[C@@H]4C3)[C@H](C)NC2=O)[C@@H](C)O)c1" has hemolysis at 0.75 h, 100 µM strictly beneath 4%.
Fulfilled

API: query returns whether the molecule falls strictly under 4% in hemolysis at 0.75 h, 100 µM. Query: "CCCCCCc1ccc(-c2ccc(C(=O)N[C@@H](CCCN)C(=O)N[C@H](C(=O)N[C@@H](C)C(=O)N[C@H]3Cc4cn(nn4)CCCN4C[C@@H]5OB(O[C@@H]5C4)[C@H](C)NC3=O)[C@@H](C)O)cc2)cc1"
Not fulfilled
